Exercise: state measured Fold change in KD from pH 7.4 to pH 6 for each of the binders provided.
- measurementTarget: T1, human LAP-TGFB1 Fc fusion (human)
- T1 construct: also called human LAP-TGFβ1-Fc; human LAP-TGFβ-Fc isoform 1
- T1 sequence (chain, as listed by the source limits assumed): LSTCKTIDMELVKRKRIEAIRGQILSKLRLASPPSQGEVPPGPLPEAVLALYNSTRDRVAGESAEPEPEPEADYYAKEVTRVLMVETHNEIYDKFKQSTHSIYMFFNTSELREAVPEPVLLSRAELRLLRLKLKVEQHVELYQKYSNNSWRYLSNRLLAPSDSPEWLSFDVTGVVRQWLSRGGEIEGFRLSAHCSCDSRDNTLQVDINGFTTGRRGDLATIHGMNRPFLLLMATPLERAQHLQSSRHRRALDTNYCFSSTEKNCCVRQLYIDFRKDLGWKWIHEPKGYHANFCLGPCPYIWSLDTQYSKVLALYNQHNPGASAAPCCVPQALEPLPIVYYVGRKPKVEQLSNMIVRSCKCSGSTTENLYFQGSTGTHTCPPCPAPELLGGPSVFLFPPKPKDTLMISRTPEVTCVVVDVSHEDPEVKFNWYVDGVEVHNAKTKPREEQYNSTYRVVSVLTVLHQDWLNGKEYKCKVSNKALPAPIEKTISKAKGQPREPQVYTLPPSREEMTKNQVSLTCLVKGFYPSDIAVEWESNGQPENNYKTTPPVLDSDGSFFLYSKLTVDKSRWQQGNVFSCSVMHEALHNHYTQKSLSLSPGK
- protocol: SPR
Answers are plain numbers, in fold.

Examples from the recorded data:
binder | readingUnit | Fold change in KD from pH 7.4 to pH 6
64BLH (Fab, V domains shown, also called 16BLM Fab) VH: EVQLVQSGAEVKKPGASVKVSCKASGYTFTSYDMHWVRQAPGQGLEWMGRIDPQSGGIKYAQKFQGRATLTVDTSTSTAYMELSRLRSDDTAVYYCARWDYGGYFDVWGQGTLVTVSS VL: DIQMTQSPSSLSASVGDRVTITCRASQDIYNYLNWYQQKPGKAVKLLIYYTSVLETGVPSRFSGSGSGTDYTLTISSLQPEDFATYFCQQGDTLPWTFGQGTKLEIK | fold | 0.3
65BLH (Fab, V domains shown, also called 17BLM Fab) VH: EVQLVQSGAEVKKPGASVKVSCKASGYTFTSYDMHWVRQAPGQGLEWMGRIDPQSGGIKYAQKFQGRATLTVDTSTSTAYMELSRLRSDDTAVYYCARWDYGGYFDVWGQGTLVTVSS VL: DIQMTQSPSSLSASVGDRVTITCRASQDIYNYLNWYQQKPGKAVKLLIYYTSRLETGVPSRFSGSGSGTDYTLTISSLQPEDFATYFCQQGDELPWTFGQGTKLEIK | fold | 0.4
63BLH (Fab, V domains shown, also called 15BLM Fab; 015BLM Fab) VH: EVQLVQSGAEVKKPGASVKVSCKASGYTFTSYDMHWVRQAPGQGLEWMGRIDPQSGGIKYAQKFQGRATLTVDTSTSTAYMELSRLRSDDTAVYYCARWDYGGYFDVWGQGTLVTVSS VL: DIQMTQSPSSLSASVGDRVTITCRASQDIYNYLNWYQQKPGKAVKLLIYYTSRLETGVPSRFSGSGSGTDYTLTISSLQPEDFATYFCQQGDTLPWTFGQGTKLEIK | fold | 1.2
54BLH (Fab, V domains shown, also called 06BLM Fab) VH: EVQLVQSGAEVKKPGASVKVSCKASGYTFTSYDMHWVRQAPGQGLEWMGRIDPQSGGIRYAQKFQGRATLTVDTSTSTAYMELSRLRSDDTAVYYCARWDYGGQFDVWGQGTLVTVSS VL: DIQMTQSPSSLSASVGDRVTITCRASQDIYNYLNWYQQKPGKAVKLLIYYTSILETGVPSRFSGSGSGTDYTLTISSLQPEDFATYFCQQGDTLPWTFGQGTKLEIK | fold | 1.5
55BLH (Fab, V domains shown, also called 07BLM Fab) VH: EVQLVQSGAEVKKPGASVKVSCKASGYTFTSYDMHWVRQAPGQGLEWMGRIDPQSGGIRYAQKFQGRATLTVDTSTSTAYMELSRLRSDDTAVYYCARWDYGGYFDVWGQGTLVTVSS VL: DIQMTQSPSSLSASVGDRVTITCRASQDIYSYLNWYQQKPGKAVKLLIYYTSNLETGVPSRFSGSGSGTDYTLTISSLQPEDFATYFCQQGDTLPWTFGQGTKLEIK | fold | 1.8

For each of the items listed, what is its Fold change in KD from pH 7.4 to pH 6?
1. 20E6 Fab (80BGJ/85BIT) (Fab, V domains shown, also called 20E6 (80BGJ); 20E6 (85BIT)) VH: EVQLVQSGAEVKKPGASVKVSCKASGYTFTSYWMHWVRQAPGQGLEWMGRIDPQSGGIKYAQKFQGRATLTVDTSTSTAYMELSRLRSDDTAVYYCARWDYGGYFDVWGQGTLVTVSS VL: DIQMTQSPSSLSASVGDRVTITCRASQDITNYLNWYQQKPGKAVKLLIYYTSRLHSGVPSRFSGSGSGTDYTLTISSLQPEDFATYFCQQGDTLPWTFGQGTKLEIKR
2. 60BLH (Fab, V domains shown, also called 12BLM Fab) VH: EVQLVQSGAEVKKPGASVKVSCKASGYTFTSYDMHWVRQAPGQGLEWMGRIDPQSGGVKYAQKFQGRATLTVDTSTSTAYMELSRLRSDDTAVYYCARWDYGGYFDVWGQGTLVTVSS VL: DIQMTQSPSSLSASVGDRVTITCRASQDIYNYLNWYQQKPGKAVKLLIYYTSVLETGVPSRFSGSGSGTDYTLTISSLQPEDFATYFCQQGDELPWTFGQGTKLEIK

1: 1.8; 2: 2.8
